Measured composite z-score values are reported for all entries that follow.
# testedSystem: Left-right determination factor 2 (Homo sapiens)
# runDescription: LEFTY2 binders on small-molecule microarrays, primary screen, biochemical, small-molecule microarray, 635 nm fluorescence scan (AID 1110)
# measurementContext: LEFTY2 binding, higher = more signal
measurementLabel: composite z-score

1) C=CCNC(=O)[C@@H]1[C@H]2C(=O)O[C@H](c3ccccc3)[C@H](c3ccccc3)N2[C@H](c2ccc(O)cc2)[C@@]12C(=O)N(C(=O)OCCOC)c1ccc(C#CCCO)cc12    0.863
2) CC(C)C(=C=CC[C@@H](O)c1cccc(OCCO)c1)C[C@@H](O)c1ccccn1    -0.315
3) COc1ccc(C#Cc2ccc3c(c2)[C@]2(C(=O)N3)[C@H](c3ccc(OCCO)cc3)N3[C@H](c4ccccc4)[C@H](c4ccccc4)OC(=O)[C@H]3[C@@H]2C(=O)N2CCc3cc(OC)c(OC)cc3C2)cc1    0.461
